Experiment: Metabolic stability in monkey liver microsomes assessed as intrinsic clearance in liver
Format: ADME, Macaca mulatta, Microsome
Settings: rhesus monkey, read-out: CLH
Measure name: CLint scaled (mL/min/kg)

# Compound, Unit of measure, CLint scaled
rows = [
    ("CCN(c1cc(-c2ccc3c(c2)CCC3N2CCOCC2)cc(C(=O)NCc2c(C)cc(C)[nH]c2=O)c1C)C1CCOCC1 (configuration not stated)", "mL/min/kg", 272),
    ("CCN(c1cc(-c2ccc(CN3CCOCC3)cc2)cc(C(=O)NCc2c(C)cc(C)[nH]c2=O)c1C)C1CCOCC1", "mL/min/kg", 237),
]

---

Experiment: Cmax in mouse at 10 mg/kg, po
Type: ADME, organism-based
Conditions: in vivo
Measure name: Cmax (ng/mL)

Example entries begin here.
# Compound, Cmax, ng/mL
data = [
    ("CCN1C(=O)C2(CCOCC2)c2ccc(-c3cc(C(=O)NCc4c(C)cc(C)[nH]c4=O)c(C)c(N(CC)C4CCOCC4)c3)cc21", 1750),
    ("CCN(c1cc(-c2ccc3c(c2)CCC3N2CCOCC2)cc(C(=O)NCc2c(C)cc(C)[nH]c2=O)c1C)C1CCOCC1 (stereo unspecified)", 1700),
    ("CCN(c1cc(-c2ccc3c(c2)NC(=O)C32CCN(C)CC2)cc(C(=O)NCc2c(C)cc(C)[nH]c2=O)c1C)C1CCOCC1", 13.5),
]

a = CCN(c1cc(-c2ccc3c(c2)NC(=O)C32CCOCC2)cc(C(=O)NCc2c(C)cc(C)[nH]c2=O)c1C)C1CCOCC1
b = CCN(c1cc(-c2ccc3c(c2)N(C)CC32CCOCC2)cc(C(=O)NCc2c(C)cc(C)[nH]c2=O)c1C)C1CCOCC1
c = CCN(c1cc(-c2ccc(CN3CCOCC3)cc2)cc(C(=O)NCc2c(C)cc(C)[nH]c2=O)c1C)C1CCOCC1
List items by Cmax in falling order. Provide the ranking by listing each label in its place in the requested order.
c, b, a

---

Assay: Half life in mouse at 2 mg/kg, iv
Format: ADME, organism-based
Details: in vivo
Measure name: half-life (min)

Worked cases, answers included:
# Compound, Unit of measure, half-life
rows = [
    ("CCN(c1cc(-c2ccc3c(c2)NC(=O)C32CCOCC2)cc(C(=O)NCc2c(C)cc(C)[nH]c2=O)c1C)C1CCOCC1", "min", 25.2),
    ("CCN(c1cc(-c2ccc3c(c2)CCC3N2CCOCC2)cc(C(=O)NCc2c(C)cc(C)[nH]c2=O)c1C)C1CCOCC1 (stereo unspecified)", "min", 25.2),
    ("CCN(c1cc(-c2ccc3c(c2)N(C)CC32CCOCC2)cc(C(=O)NCc2c(C)cc(C)[nH]c2=O)c1C)C1CCOCC1", "min", 10.8),
    ("CCN(c1cc(-c2ccc3c(c2)NC(=O)C32CCN(C)CC2)cc(C(=O)NCc2c(C)cc(C)[nH]c2=O)c1C)C1CCOCC1", "min", 37.2),
]

P = CCN1C(=O)C2(CCOCC2)c2ccc(-c3cc(C(=O)NCc4c(C)cc(C)[nH]c4=O)c(C)c(N(CC)C4CCOCC4)c3)cc21
Q = CCN(c1cc(-c2ccc(CN3CCOCC3)cc2)cc(C(=O)NCc2c(C)cc(C)[nH]c2=O)c1C)C1CCOCC1 [TAZEMETOSTAT]
Thinking about recorded half-life values, which is higher, P or Q ? Answer = label.
Q
(Q: 35.4 min, P: 19.2 min)
